experiment: Pharmacokinetic parameters following intravenous and oral administration in rats; format: in vivo, male Wistar rats; conditions: oral administration (p.o.)
Counter-ions that a name gives are not always drawn.
value type: AUCnorm (kg·h/L)

O=C(O)c1cnn(-c2cccc(-c3cc(Cl)ccc3-c3ccc(N4CCN(CC5CC5)CC4)cc3)n2)c1C(F)(F)F [Comparative Example 174 (WO2012/058132), reference compound] | 0.63

[I] CCCN1CCN(c2ccc(-c3ccc(Cl)cc3N3CCCC(n4ncc(C(=O)O)c4C(F)F)C3)cc2)CC1 (single isomer, unassigned) [Example 4, hydrochloride]
[II] O=C(O)c1cnn(C2CCCN(c3cc(Cl)ccc3-c3ccc(N4CCN(CC(F)(F)F)CC4)cc3)C2)c1C(F)F (single isomer, unassigned) [Example 6]
Exam item: In the pair I and II , the larger recorded AUCnorm belongs to which? Let me know the label of the one you choose.
Marked response: II
(II: 2.11 kg·h/L, I: 0.84 kg·h/L)

###

assay: Pharmacokinetic parameters following intravenous and oral administration in rats; format: in vivo, male Wistar rats; settings: male, Wistar, rat, plasma, po, oral administration (p.o.), read-out: MRT
Where a name gives a salt, the structure may show the parent alone.
value type: MRT (h)

// solved cases for MRT follow
CC(C)CN1CCN(c2ccc(-c3ccc(Cl)cc3N3CCC[C@@H](n4ncc(C(=O)O)c4C(F)F)C3)cc2)CC1 (single isomer, unassigned) | 6.23
O=C(O)c1cnn(-c2cccc(-c3cc(Cl)ccc3-c3ccc(N4CCN(CC5CC5)CC4)cc3)n2)c1C(F)(F)F [Comparative Example 174 (WO2012/058132), reference compound] | 8.4
O=C(O)c1cnn(C2CCCN(c3cc(Cl)ccc3-c3ccc(N4CCN(CC(F)(F)F)CC4)cc3)C2)c1C(F)F (single isomer, unassigned) | 7.32

[I] O=C(O)c1cnn(C2CCCN(c3cc(Cl)ccc3-c3ccc(N4CCN(CC5CC5)CC4)cc3)C2)c1C(F)F (single isomer, unassigned) [Example 5, hydrochloride]
[II] O=C(O)c1cnn(C2CCCN(c3cc(Cl)ccc3-c3ccc(N4CCN(CC5CC5)CC4)cc3)C2)c1C(F)(F)F (single isomer, unassigned) [Example 10, hydrochloride]
Exam item: Lowest MRT? choose I or II Let me know the label of the one you choose.
Marked response: II

###

assay: Pharmacokinetic parameters following intravenous and oral administration in rats; assay type: in vivo, male Wistar rats; conditions: male, Wistar, rat, plasma, iv, intravenous administration, read-out: CLplasma (converted)
Counter-ions that a name gives are not always drawn.
value type: clearance (mL/min/kg)

CC(C)CN1CCN(c2ccc(-c3ccc(Cl)cc3N3CCCC(n4ncc(C(=O)O)c4C(F)F)C3)cc2)CC1 (single isomer, unassigned) [Example 1, hydrochloride] | 9.33

[1] CCCN1CCN(c2ccc(-c3ccc(Cl)cc3N3CCCC(n4ncc(C(=O)O)c4C(F)F)C3)cc2)CC1 (single isomer, unassigned) [Example 4, hydrochloride]
[2] CC(C)CN1CCN(c2ccc(-c3ccc(Cl)cc3N3CCCC(n4ncc(C(=O)O)c4C(F)(F)F)C3)cc2)CC1 (single isomer, unassigned) [Example 9, hydrochloride]
Exam item: In the pair 1 and 2 , the larger recorded clearance belongs to which? Let me know the label of the one you choose.
Marked response: 1
(1: 12 mL/min/kg, 2: 3 mL/min/kg)

###

test: Pharmacokinetic parameters following intravenous and oral administration in rats; assay type: in vivo, male Wistar rats; settings: intravenous administration
Counter-ions that a name gives are not always drawn.
value type: AUCnorm (kg·h/L)

O=C(O)c1cnn(C2CCCN(c3cc(Cl)ccc3-c3ccc(N4CCN(CC(F)(F)F)CC4)cc3)C2)c1C(F)F (single isomer, unassigned) [Example 7] | 7.23
CC(C)CN1CCN(c2ccc(-c3ccc(Cl)cc3N3CCCC(n4ncc(C(=O)O)c4C(F)F)C3)cc2)CC1 (single isomer, unassigned) [Example 1, hydrochloride] | 1.77
CC(C)CN1CCN(c2ccc(-c3ccc(Cl)cc3N3CCCC(n4ncc(C(=O)O)c4C(F)(F)F)C3)cc2)CC1 (single isomer, unassigned) [Example 9, hydrochloride] | 5.48
O=C(O)c1cnn(-c2cccc(-c3cc(Cl)ccc3-c3ccc(N4CCN(CC5CC5)CC4)cc3)n2)c1C(F)(F)F [Comparative Example 174 (WO2012/058132), reference compound] | 0.77
O=C(O)c1cnn(C2CCCN(c3cc(Cl)ccc3-c3ccc(N4CCN(CC5CC5)CC4)cc3)C2)c1C(F)F (single isomer, unassigned) [Example 5, hydrochloride] | 1.23

[A] CCCN1CCN(c2ccc(-c3ccc(Cl)cc3N3CCCC(n4ncc(C(=O)O)c4C(F)F)C3)cc2)CC1 (single isomer, unassigned) [Example 4, hydrochloride]
[B] O=C(O)c1cnn(C2CCCN(c3cc(Cl)ccc3-c3ccc(N4CCN(CC(F)(F)F)CC4)cc3)C2)c1C(F)F (single isomer, unassigned) [Example 6]
Exam item: Lowest AUCnorm? choose A or B Let me know the label of the one you choose.
Marked response: A
(A: 1.40 kg·h/L, B: 2.29 kg·h/L)
